# TARGET SYSTEM: tau (Homo sapiens)
# TEST PROTOCOL: MCE Phenols Library screening, tau biosensor cell seeding assay (AvZ)
# Format: cell-based
# ASSAY CONTEXT: Z score, replicate 1
ENDPOINT NAME: Z repl 1
One number for each entry.

Q. Dear colleague, I am looking for the recorded Z repl 1 of the following compound: COc1ccc2c(c1OC)O[C@H]1c3ccc(O)cc3OC[C@@H]21
A. -0.257

Count: 7. Required value per item: Z repl 1.
1. O=c1cc(-c2ccc(O)c(O)c2)oc2c([C@@H]3O[C@H](CO)[C@@H](O)[C@H](O)[C@H]3O)c(O)cc(O)c12
2. C=C(C)[C@H](CC=C(C)C)Cc1c(O)cc(O)c2c1O[C@H](c1ccc(O)cc1O)CC2=O
3. OC[C@H]1O[C@@H](Oc2cc(O)cc(/C=C/c3ccc(O[C@@H]4O[C@H](CO)[C@@H](O)[C@H](O)[C@H]4O)cc3O)c2)[C@H](O)[C@@H](O)[C@@H]1O [Mulberroside A]
4. CC(=O)c1ccc(C)cc1O [2'-Hydroxy-4'-methylacetophenone]
5. O=c1c(O[C@@H]2OC[C@@H](O)[C@H](O)[C@H]2O)c(-c2ccc(O)c(O)c2)oc2cc(O)cc(O)c12
6. COc1cc(CNC(=O)CCCC/C=C/C(C)C)ccc1O [Capsaicin, reference compound]
7. Oc1cc(O)cc(/C=C/c2ccc(O)c(O)c2)c1

A.
0.558
-0.704
-0.183
0.483
-0.491
0.025
-1.302

Below is a list of compounds. For each, state its recorded Z repl 1.
1. OC[C@H]1O[C@@H](Oc2cc3c(O)cc(O)cc3[o+]c2-c2ccc(O)c(O)c2)[C@H](O[C@@H]2OC[C@@H](O)[C@H](O)[C@H]2O)[C@@H](O)[C@@H]1O.[Cl-] [Cyanidin 3-sambubioside (chloride)]
2. O=C(O)C[C@@H]1C(=O)O[C@H]2[C@H](OC(=O)c3cc(O)c(O)c(O)c3)[C@@H](OC(=O)c3cc(O)c(O)c4c3[C@H]1[C@H](O)C(=O)O4)[C@H](OC(=O)c1cc(O)c(O)c(O)c1)O[C@@H]2COC(=O)c1cc(O)c(O)c(O)c1

A.
1: -0.124; 2: -2.186

Consider the following items and state reported Z repl 1 for each.
1. O=C(O)c1ccc(O)cc1 [4-Hydroxybenzoic acid]
2. OC[C@]1(O)COc2cc(O)ccc2-c2cc(O)c(O)cc2C1
3. CCCCCCC[C@H](O)CC(=O)CCc1ccc(O)c(OC)c1
4. COc1c(CC=C(C)C)c(O)cc2oc(=O)c(-c3ccc(O)cc3O)cc12
5. COc1cc(-c2coc3c([C@@H]4O[C@H](CO)[C@@H](O)[C@H](O)[C@H]4O)c(O)ccc3c2=O)ccc1O

A.
-0.323
-0.022
0.065
0.796
0.567

* * *

# TARGET SYSTEM: tau (Homo sapiens, UniProt P10636)
# Sequence (P10636 623-695 limits assumed): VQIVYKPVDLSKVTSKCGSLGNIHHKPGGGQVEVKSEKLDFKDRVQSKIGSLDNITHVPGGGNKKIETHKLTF
# TEST PROTOCOL: MCE Phenols Library screening, tau biosensor cell seeding assay (AvZ)
# Assay type: cell-based
# ASSAY CONTEXT: puncta, replicate 2
ENDPOINT NAME: raw data 2
One number for each entry.

Please state, for each entry, its recorded raw data 2.
1. C=C(C)[C@H](CC=C(C)C)Cc1c(O)cc(OC)c2c1O[C@H](c1ccc(O)cc1O)[C@@H](O)C2=O [Kushenol I]
2. OCCc1ccccc1 [2-Phenylethanol]
3. COc1cc(O)c2c(=O)cc(-c3ccccc3)oc2c1 [Tectochrysin]

A.
8515.32
14636.1
8798.38

Dear colleague, could you send me raw data 2 for each of the items below? Thanks.
1. C[C@@H]1CC(=O)c2c(ccc3c2C(=O)c2cccc(O)c2C3=O)C1 [Ochromycinone]
2. COc1cc(/C=C/c2ccc(O)c(O)c2)cc(OC)c1 [3'-Hydroxypterostilbene]
3. CC(C)=CCc1c(O)ccc(C(=O)[C@@H]2[C@@H](c3c(O)cc(O)c4c(=O)c(CC=C(C)C)c(-c5ccc(O)cc5O)oc34)C=C(C)C[C@H]2c2ccc(O)cc2O)c1O [Kuwanon H]
4. COc1ccc(-c2cc(=O)c3c(O)cc(OC)cc3o2)cc1 [7,4'-Di-O-methylapigenin]
5. COc1cc(-c2oc3cc(O)cc(O)c3c(=O)c2O[C@@H]2O[C@H](CO[C@@H]3O[C@@H](C)[C@H](O)[C@@H](O)[C@H]3O)[C@@H](O)[C@H](O)[C@H]2O[C@@H]2O[C@@H](C)[C@H](O)[C@@H](O)[C@H]2O)ccc1O [Typhaneoside]
6. C=C(C)[C@H](CC=C(C)C)Cc1c(O)cc(OC)c2c1O[C@H](c1ccc(O)cc1OC)CC2=O [(2S)-2'-Methoxykurarinone]
7. C=C(C)[C@H](CC=C(C)C)Cc1c(O)cc(O)c2c1O[C@H](c1ccccc1O)CC2=O [Kushenol A]

A.
1. 10495.4
2. 17933.3
3. 18451.1
4. 11990.2
5. 12042.9
6. 21298.7
7. 23704.6

Go through the list and state raw data 2 for each entry.
1. O=c1cc(-c2ccc(O)cc2)oc2c([C@@H]3O[C@H](CO)[C@@H](O[C@@H]4O[C@H](CO)[C@@H](O)[C@H](O)[C@H]4O)[C@H](O)[C@H]3O)c(O)cc(O)c12 [Vitexin-4''-O-glucoside]
2. O=c1c(O[C@@H]2O[C@H](CO[C@@H]3O[C@H](CO)[C@@H](O)[C@H](O)[C@H]3O)[C@@H](O)[C@H](O)[C@H]2O)c(-c2ccc(O)cc2)oc2cc(O)cc(O)c12 [Kaempferol 3-O-gentiobioside]
3. COc1ccc(-c2cc(=O)c3c(O)c(OC)c(O)cc3o2)cc1OC [Eupatilin]
4. N[C@@H](Cc1ccc(O)c([N+](=O)[O-])c1)C(=O)O [3-Nitro-L-tyrosine]
5. COc1ccc2cc3[n+](cc2c1OC)CCc1cc(O)c(O)cc1-3 [Demethyleneberberine]
6. O=C(OCC1=C[C@@H](O)[C@@H]2C=CO[C@@H](O[C@@H]3O[C@H](CO)[C@@H](O)[C@H](O)[C@H]3O)[C@H]12)c1ccc(O)cc1 [Agnuside]

A.
1: 10285.2; 2: 8962.19; 3: 15845.8; 4: 27912.2; 5: 10588.9; 6: 15887.6

Batch lookup, raw data 2 per entry.
1. OC[C@H]1O[C@@H](Oc2cc(O)cc(/C=C/c3ccc(O)cc3)c2)[C@H](O)[C@@H](O)[C@@H]1O (mixture of isomers) [(E/Z)-Polydatin]
2. O=c1c(O[C@@H]2O[C@H](CO)[C@@H](O)[C@H](O)[C@H]2O[C@@H]2O[C@H](CO)[C@@H](O)[C@H](O)[C@H]2O)c(-c2ccc(O)c(O)c2)oc2cc(O)cc(O)c12 [Baimaside]
3. CC(C)=CCc1c(-c2ccc(O)cc2O)oc2c([C@H]3C=C(C)C[C@@H](c4ccc(O)cc4O)[C@@H]3C(=O)c3ccc(O)cc3O)c(O)cc(O)c2c1=O [Kuwanon G]
4. O=C(O[C@@H]1Cc2c(O)cc(O)cc2O[C@@H]1c1cc(O)c(=O)c2c(O)c(O)cc([C@H]3Oc4cc(O)cc(O)c4C[C@H]3O)c2c1)c1cc(O)c(O)c(O)c1 [Theaflavin-3-gallate]

A.
1. 11500.1
2. 22670.4
3. 19478.8
4. 30.952

List raw data 2 for every entry below, keeping the order given.
1. O=c1cc(-c2ccc(O)cc2)oc2cc(O)c(O)c(O)c12 [Scutellarein]
2. O=C(/C=C/c1ccc(O)c(O)c1)O[C@@H]1C[C@@](O)(C(=O)O)C[C@@H](O)[C@@H]1O [Neochlorogenic acid]
3. O=c1cc(O)cc(/C=C/c2ccc(O)c(O)c2)o1 [Hispidin]
4. CC(C)=CCc1cc(-c2coc3cc(O)ccc3c2=O)ccc1O [Neobavaisoflavone]

A.
[573.179, 8413.44, 11568.8, 11192.7]

Record raw data 2 per entry; entries follow.
1. COc1ccc(-c2cc(=O)c3c(O)cc(O)c(-c4cc(-c5cc(=O)c6c(O)cc(OC)cc6o5)ccc4OC)c3o2)cc1 [sciadopitysin]
2. O=C1C[C@@H](c2ccc(O)cc2)Oc2cc(O[C@@H]3O[C@H](CO)[C@@H](O)[C@H](O)[C@H]3O)ccc21 [Neoliquiritin]
3. COc1cc(/C=C/C(=O)OCC[N+](C)(C)C)cc(OC)c1O [Sinapine]

A.
1. 18561.5
2. 6836.97
3. 9509.32

* * *

# TARGET SYSTEM: tau (Homo sapiens)
# TEST PROTOCOL: MCE Phenols Library screening, tau biosensor cell seeding assay (AvZ)
# Type: cell-based
# ASSAY CONTEXT: raw puncta, replicate 1
ENDPOINT NAME: raw data 1

Worked examples follow.
Q. Look up raw data 1: COc1cc(-c2oc3cc(OC)c(OC)c(O)c3c(=O)c2OC)ccc1O
A. 27400

Q. Continue with O=c1c(O)c(-c2ccc(O)cc2)oc2cc(O)cc(O)c12
A. 26297.7

Q. Also COc1cc(CNC(=O)CCCC/C=C/C(C)C)ccc1O [Capsaicin, reference compound] ?
A. 26653.4

Q. How about O=C1c2c(O)cccc2C([C@@H]2O[C@H](CO)[C@@H](O)[C@H](O)[C@H]2O)c2cc(CO)cc(O)c21 (stereo partly shown) [Aloin(mixture of A&B)] ?
A. 22314.5

Q. Next molecule: Cc1c(C)c2c(c(C)c1O)CC[C@@](C)(CCC[C@H](C)CCC[C@H](C)CCCC(C)C)O2
A. 24288.2

Hi! Can you tell me raw data 1 for each of these molecules?
1. O=C(O)[C@H]1O[C@@H](Oc2cc(O)c3c(=O)cc(-c4ccc(O)c(O)c4)oc3c2)[C@H](O)[C@@H](O)[C@@H]1O [Luteolin 7-O-glucuronide]
2. O=c1c2c(O)cc(O)cc2oc2c(O)ccc(O[C@@H]3O[C@H](CO)[C@@H](O)[C@H](O)[C@H]3O)c12

A.
19142
23518.4
